Where do the numbers come from? From paper PMC3445516.

Target: PKCδ (Homo sapiens, UniProt Q05655)
Sequence (Q05655 whole entry): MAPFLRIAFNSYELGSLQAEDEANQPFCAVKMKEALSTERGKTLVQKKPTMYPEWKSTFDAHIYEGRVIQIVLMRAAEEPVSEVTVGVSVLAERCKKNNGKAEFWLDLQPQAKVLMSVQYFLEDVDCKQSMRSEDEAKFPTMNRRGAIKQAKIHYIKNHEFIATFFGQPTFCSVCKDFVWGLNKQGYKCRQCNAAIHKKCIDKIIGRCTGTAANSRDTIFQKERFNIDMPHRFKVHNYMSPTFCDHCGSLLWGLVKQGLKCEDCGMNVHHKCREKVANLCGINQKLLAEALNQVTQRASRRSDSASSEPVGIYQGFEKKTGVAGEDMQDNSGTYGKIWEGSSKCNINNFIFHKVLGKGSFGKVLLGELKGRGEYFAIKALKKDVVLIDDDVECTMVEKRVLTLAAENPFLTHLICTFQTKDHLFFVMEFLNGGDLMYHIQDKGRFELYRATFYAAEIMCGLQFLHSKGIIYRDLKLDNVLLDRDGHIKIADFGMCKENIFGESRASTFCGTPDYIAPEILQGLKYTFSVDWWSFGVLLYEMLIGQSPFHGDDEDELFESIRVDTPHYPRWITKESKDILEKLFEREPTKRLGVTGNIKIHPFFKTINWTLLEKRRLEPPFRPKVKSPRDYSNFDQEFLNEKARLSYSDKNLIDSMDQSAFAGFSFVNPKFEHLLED
Experiment: In vitro radiometric PKC kinase assay
Format: biochemical
Design: purchased SignalChem (Richmond, BC, Canada)
Conditions: 10 µM; read-out: inhibition of PKCδ
endpoint: inhibition at 10 µM

Name the reported inhibition at 10 µM value associated with the compound O=C1N=C(N[C@H](CO)Cc2ccccc2)S/C1=C\c1ccc2ncccc2c1 [Compound 190] ~70%

# inhibition at 10 µM lookup, item Cc1cc(C)c2c(n1)sc1c(N)ncnc12 [Compound 172] ~50%

Need inhibition at 10 µM, item O=C1N=C(NCc2ccccc2)S/C1=C\c1ccc2ncccc2c1 [Compound 178] ~50%

Give the measured inhibition at 10 µM of O=C1N=C(N[C@@H](CO)Cc2ccccc2)S/C1=C\c1ccc2ncccc2c1 [Compound 198] . ~70%
